molecular target: His-DciA del1-45 (UniProt A0A0H3C5R2 46-179, del1-45); assay: EMSA; 150 mM K-glutamate; EMSA: 20 mM Tris-HCl pH 7.5, 10 mM Mg acetate, 50 or 150 mM K-glutamate, 0.1 mg/ml BSA, 10% glycerol, 2 mM ATP, 12.5 nM DNA, 5 min on ice; M13 pull-down: Tris pH 7.5, 10 mM Mg acetate, 50 mM K-glutamate, 0.1 mM ATP, 0.1 mg/ml BSA, 30 C; conditions: protein: recombinant; tags: N-terminal His6; label: 5'-FAM
Sequence (A0A0H3C5R2 entry or part of it del1-45): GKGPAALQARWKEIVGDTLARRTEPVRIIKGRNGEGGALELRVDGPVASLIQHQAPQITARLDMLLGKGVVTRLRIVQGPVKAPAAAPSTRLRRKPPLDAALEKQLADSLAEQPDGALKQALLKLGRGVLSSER
Reported Kd by item:

- BINDER: "TTTTTTTTTTTTTTTTTTTTTTTTTTTTTTTTTTT (ssDNA) [35-mer oligo 2201]"
  UNIT TAG: "nM"
  Kd: 520
- BINDER: "80-mer oligo 1790 (ssDNA) DNA: TCCTTGTTATCCACAGGGCAGTTTTTTTTTTTTTTTTTTTTTTTTTTTTTTTTTTTTTTTTGTGCGATATAGTTCTCCGA"
  UNIT TAG: "nM"
  Kd: 115

The values you see were collected from paper PMC12547741.
